System: UGT
protocol-text: Effect of inhibitors on buprenorphine-glucuronide formation in LS180 cells
settings: buprenorphine 10 μM, inhibitor 100 μM, 2 hours, vs control, p<0.05, n.d. = glucuronide not detected
parameter: formation of buprenorphine glucuronide

The cases that follow already have their formation of buprenorphine glucuronide on record.
* CCOc1cc(C=O)ccc1O | significantly decreased
* COc1cc(CCC(C)=O)ccc1O | significantly decreased
* CCOc1cc(C2OCC(C)O2)ccc1O (centres unmarked) | significantly decreased
* COc1cc(C=O)ccc1O | significantly decreased
* CC=Cc1ccc(O)c(OC)c1 | not detected
* C=CCc1ccc(O)c(OC)c1 | significantly decreased
* COc1cc(C2Oc3cc([C@H]4Oc5cc(O)cc(O)c5C(=O)[C@@H]4O)ccc3OC2CO)ccc1O (some centres unmarked) | significantly decreased
* Oc1ccc(C=Cc2cc(O)cc(O)c2)cc1 | not detected

*Q* Looking for the measured formation of buprenorphine glucuronide of "C=CCc1ccc(O)c(-c2cc(CC=C)ccc2O)c1" , can you help?
*A* significantly decreased

*Q* Looking for the measured formation of buprenorphine glucuronide of "O=c1c(O)c(-c2ccc(O)c(O)c2)oc2cc(O)cc(O)c12" , can you help?
*A* not detected

----------
System: UGT
protocol-text: Effect of inhibitors on buprenorphine-glucuronide formation in LS180 cells
settings: buprenorphine 10 μM, inhibitor 100 μM, 2 hours, vs control, p<0.05, n.d. = glucuronide not detected
parameter: formation of buprenorphine glucuronide

The cases that follow already have their formation of buprenorphine glucuronide on record.
- COc1c(O)cc2oc3cc(O)c(CC=C(C)C)c(O)c3c(=O)c2c1CC=C(C)C: significantly decreased
- CCCOC(=O)c1ccc(O)cc1: significantly decreased
- COc1cc(/C=C/C(=O)CC(=O)/C=C/c2ccc(O)c(OC)c2)ccc1O: not detected
- COc1ccccc1O: significantly decreased

*Q* Looking for the measured formation of buprenorphine glucuronide of "CC(=O)CCc1ccc(O)cc1" , can you help?
*A* significantly decreased

*Q* Looking for the measured formation of buprenorphine glucuronide of CCCOC(=O)c1cc(O)c(O)c(O)c1 [propyl gallate] , can you help?
*A* not detected

The origin of these recorded values is patent US20160051536A1.
